- ASSAY TARGET: CDC25A (Homo sapiens, UniProt P30304)
- Construct: GST (pGEX vector) (N); made in house; host or cells: E. coli BL21
- Sequence (P30304 1-524): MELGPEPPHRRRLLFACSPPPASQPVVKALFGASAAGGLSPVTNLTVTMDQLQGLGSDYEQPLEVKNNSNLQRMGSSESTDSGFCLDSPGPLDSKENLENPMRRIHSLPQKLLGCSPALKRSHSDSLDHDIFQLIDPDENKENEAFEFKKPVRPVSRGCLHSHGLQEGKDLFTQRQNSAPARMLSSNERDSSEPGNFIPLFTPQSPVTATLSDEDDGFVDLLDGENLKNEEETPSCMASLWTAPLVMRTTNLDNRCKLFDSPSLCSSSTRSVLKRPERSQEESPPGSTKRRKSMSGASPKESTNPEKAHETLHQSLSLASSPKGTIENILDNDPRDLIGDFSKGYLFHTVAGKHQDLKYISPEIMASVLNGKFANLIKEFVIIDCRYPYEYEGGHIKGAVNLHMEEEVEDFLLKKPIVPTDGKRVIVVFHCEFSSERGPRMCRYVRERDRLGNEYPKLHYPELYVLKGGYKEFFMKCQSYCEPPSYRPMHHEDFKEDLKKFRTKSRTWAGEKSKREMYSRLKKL
- TEST DETAILS: Enzymatic assay (OMFP substrate) on recombinant CDC25A
- Assay type: biochemical
- ASSAY CONDITIONS: compound 20 µM; relative to DMSO control; read-out: % remaining activity ± SD (Table S2, second round of selection)
Listing: remaining activity at 20 µM of selected molecules
MEASUREMENT TYPE: remaining activity at 20 µM (%)

[[record]]
molecule = "O=C1C=C(c2c(O)cc(O)cc2O)C(=O)c2c(O)cccc21"
measurement_type = "remaining activity at 20 µM"
unit_label = "%"
readout_value = 70.1

[[record]]
molecule = "O=C(O)c1ccc2c(c1)C(=O)c1c(O)ccc(O)c1C2=O"
measurement_type = "remaining activity at 20 µM"
unit_label = "%"
readout_value = 98.9

[[record]]
molecule = "Nc1ccc(N)c2c1C(=O)C=CC2=O"
measurement_type = "remaining activity at 20 µM"
unit_label = "%"
readout_value = 94.4

[[record]]
molecule = "O=C1C=C(c2ccc(O)cc2O)C(=O)c2ccccc21"
measurement_type = "remaining activity at 20 µM"
unit_label = "%"
readout_value = 3.1

[[record]]
molecule = "O=C1C=C(c2ccc(O)c(O)c2O)C(=O)c2ccccc21"
measurement_type = "remaining activity at 20 µM"
unit_label = "%"
readout_value = 0

[[record]]
molecule = "COc1ccc(C2=CC(=O)c3cccc(O)c3C2=O)c(OC)c1"
measurement_type = "remaining activity at 20 µM"
unit_label = "%"
readout_value = 5.6

[[record]]
molecule = "Cc1cc(O)c2c(n1)C(=O)C=CC2=O [UPD-1416, 4-Hydroxy-2-methylquinoline-5,8-dione]"
measurement_type = "remaining activity at 20 µM"
unit_label = "%"
readout_value = 4.1

[[record]]
molecule = "Cc1c(O)ccc(C2=CC(=O)c3cccc(O)c3C2=O)c1O"
measurement_type = "remaining activity at 20 µM"
unit_label = "%"
readout_value = 0.1

[[record]]
molecule = "O=C1C=C(N2CCOCC2)C(=O)c2c(O)cccc21"
measurement_type = "remaining activity at 20 µM"
unit_label = "%"
readout_value = 41.4

[[record]]
molecule = "Cc1ccc2c(n1)C(=O)C=CC2=O [UPD-1419, 2-methyl-5,8-dihydro-5,8-dioxoquinoline]"
measurement_type = "remaining activity at 20 µM"
unit_label = "%"
readout_value = 1.9

[[record]]
molecule = "O=C1C=C(c2ccc(O)c(O)c2O)C(=O)c2c(O)cccc21"
measurement_type = "remaining activity at 20 µM"
unit_label = "%"
readout_value = 0

[[record]]
molecule = "O=C1C=CC(=O)c2c(O)cccc21 [UPD-738, 5-hydroxynaphtho-1,4-quinone]"
measurement_type = "remaining activity at 20 µM"
unit_label = "%"
readout_value = 5.9

[[record]]
molecule = "COc1cccc(SC2=CC(=O)c3cccc(O)c3C2=O)c1"
measurement_type = "remaining activity at 20 µM"
unit_label = "%"
readout_value = 0

[[record]]
molecule = "O=C1C=C(N2CCCCC2)C(=O)c2c(O)cccc21"
measurement_type = "remaining activity at 20 µM"
unit_label = "%"
readout_value = 8.5

